Sourced from patent US20070276030A1

- System Under Test: HCV RdRp NS5B d21BK (BK strain, genotype 1b) (Hepatitis C virus genotype 1b)
- Construct: NS5B from the BK strain (genotype 1b) is expressed in E. coli as a protein in which the 21 C-terminal amino acids are replaced; made in house; host or cells: E. coli
- Assay Overview: Hepatitis C polymerase (NS5B) inhibition, radioactive filter assay
- Assay type: biochemical
- Condition Description: NS5B BK strain; read-out: HCV pol BK IC50
Test Readout: IC50
Be sure to follow the number with its unit.

response.value for CC1(CC(=O)O)OCCc2c1sc1c(Cl)ccc(Cl)c21 (stereo not shown) [Example 6] (field: IC50) = 280 nM

---

- System Under Test: HCV RdRp NS5B d21BK (BK strain, genotype 1b) (Hepatitis C virus genotype 1b, UniProt P26663)
- Construct: NS5B from the BK strain (genotype 1b) is expressed in E. coli as a protein in which the 21 C-terminal amino acids are replaced; made in house; host or cells: E. coli
- Sequence (P26663 2420-2989): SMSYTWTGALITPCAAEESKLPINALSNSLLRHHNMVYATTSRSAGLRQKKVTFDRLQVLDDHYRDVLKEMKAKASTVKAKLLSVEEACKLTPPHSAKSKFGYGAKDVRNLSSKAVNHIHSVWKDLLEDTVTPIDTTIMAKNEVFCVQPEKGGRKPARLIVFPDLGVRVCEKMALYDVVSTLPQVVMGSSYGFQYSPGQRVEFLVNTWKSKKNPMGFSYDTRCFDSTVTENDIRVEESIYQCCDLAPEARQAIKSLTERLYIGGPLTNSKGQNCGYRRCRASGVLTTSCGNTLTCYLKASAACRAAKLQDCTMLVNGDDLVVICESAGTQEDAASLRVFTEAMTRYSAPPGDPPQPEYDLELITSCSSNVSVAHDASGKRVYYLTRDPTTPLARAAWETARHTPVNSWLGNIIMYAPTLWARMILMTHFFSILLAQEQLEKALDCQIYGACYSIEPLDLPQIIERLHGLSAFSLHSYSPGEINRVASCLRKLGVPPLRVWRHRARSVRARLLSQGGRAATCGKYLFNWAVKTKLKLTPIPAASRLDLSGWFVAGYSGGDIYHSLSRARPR
- Assay Overview: Hepatitis C polymerase (NS5B) inhibition, radioactive filter assay
- Format: biochemical
// IC50 lookup, one value per entry
Express the result in µM but write the number alone.

response.value for CCCC1(CC(=O)O)OCCc2c1sc1c(C)cc(F)c(C#N)c21 (centres unmarked) [Example 10] (field: IC50) = 0.13

---

// IC50 lookup, one value per entry
- System Under Test: HCV RdRp NS5B d21BK (BK strain, genotype 1b) (Hepatitis C virus genotype 1b)
- Construct: NS5B from the BK strain (genotype 1b) is expressed in E. coli as a protein in which the 21 C-terminal amino acids are replaced; made in house; host or cells: E. coli
- Assay Overview: Hepatitis C polymerase (NS5B) inhibition, radioactive filter assay
- Type: biochemical
- Description: The ability of the compounds of the present invention to inhibit Hepatitis C Polymerase was established by the following experimental procedure: NS5B from the BK strain (genotype 1b) is expressed in E. coli as a protein in which the 21 C-terminal amino acids are replaced with a short linker and a hexahistidine tag ([…]). […] The radioactive product is captured on a filter and quantitated after removal of the unincorporated nucleotides. […]
Express the result in µM but write the number alone.

Worked cases, IC50 given:
> print(dat)
                                   compound  test.readout  scale.unit  reading
1  CCCCC1(CC(=O)O)OCCc2c1sc1c(Cl)ccc(Cl)c21 (stereo not shown) [Example 7]          IC50          µM     0.32
2  CCC[C@@]1(CC(=O)O)OCCc2c1sc1c(C)ccc(C#N)c21 [Example 4]          IC50          µM      1.9
3  CCC[C@]1(CC(=O)O)OCCc2c1sc1c(C)ccc(C#N)c21 [Example 3]          IC50          µM     0.62
4  CCC[C@@]1(CC(=O)O)OCCc2c1sc1c(C)cc(F)c(C#N)c21 [Example 12]          IC50          µM      5.4
5  CCCC1(CC(=O)O)OCCc2c1sc1c(C)cc(F)cc21 (stereo not shown) [Example 9]          IC50          µM      2.9
6  CCC1(CC(=O)O)OCCc2c1sc1c(Cl)ccc(Cl)c21 (stereo not shown) [Example 8]          IC50          µM     0.17

Tested on HCV RdRp NS5B d21BK (BK strain, genotype 1b) (Hepatitis C virus genotype 1b): CCCC1(CC(=O)O)OCCc2c1sc1c(C)ccc(Br)c21 (stereo not shown) [Example 1] . Observed IC50: 0.18

Tested on HCV RdRp NS5B d21BK (BK strain, genotype 1b) (Hepatitis C virus genotype 1b): CCCC1(CC(=O)O)OCCc2c1sc1c(C)ccc(C#N)c21 (stereo not shown) [Example 2] . Observed IC50: 17.7
